FYI, the data here is from paper PMC6522510.

test system: CMS; test: Secondary dose-response HTS, Cell Titer Glo; type: cell-based, human; settings: Homo sapiens, HTS; secondary high-throughput screen; CMS; read-out: average effective concentration, CMS
Reported EC50 is given for each of the following molecules.

Recorded EC50, per entry:
- Molecule: "OC(c1cc(C(F)(F)F)nc2c(C(F)(F)F)cccc12)C1CCCCN1 (stereo not drawn)"
  EC50: "> 10 µM"
- Molecule: "C[S+]([O-])CCCCN=C=S (stereo not drawn)"
  EC50: "> 10 µM"

Could you now look at the following molecule, please?
Could you share what EC50 was measured for CN(C)c1ccc2nc3ccc(=[N+](C)C)cc-3sc2c1 , tested on CMS? > 10 µM
